Test system: MS2 coat protein
method: apparent KD of MS2 coat protein, switch OFF state (with FMN for OFF switches, without FMN for ON switches); designed switch direction (-1 OFF switch, 1 ON switch): -1; higher = weaker reporter binding
conditionInfo: FMN input: 0 or 200 uM; Eterna round: R93 (includes R88 designs)
Mark t for reported apparent KD of MS2 coat protein of 30 nM or greater; mark f for anything smaller.

Worked cases, answers included:
# constructSequence, classification
rows = [
    ("CAUAAGCAAGGAUAUACAUGAGGAUCACCCAUGUAGCUUUGCUUCGUGGGCACAACAUGUAGAAGGUGCGAAAA [Leceedon]", "f"),
    ("AGGGAGUGAGGAUAUGCGAAAGAAAAAGAAGGAAAAAAAGAGCAGAAGGUACAUGAGGAUCACCCAUGUAAAAA [milkweed 8]", "f"),
    ("AGCUAGUCAGGAUAUACGAACAUGUAAAAAGACGUGAAGGGACAUGAGGAUCACCCAUGUAGAAGGGACUAGAA [74%, Web mod - With 2 less C's]", "t"),
    ("UCCUCACAUGAGGAUCACCCAUGUGAGGAUAUGUACAUCAGGAAAAAAAAACUGAUGUACAGAAGGCACAUGAA [Design 10: Super Stable G-C 3]", "f"),
]

For this sequence, is measured apparent KD of MS2 coat protein 30 nM or higher? AUAGGCCUAGGAUAUACAUGAGGAUCACCCAUGUAAACAGAUAGAUCAAGGUAAACGAGUAGAAGGAGGAAUAA [JR_Exc003_Sub209]
f

For this sequence, is measured apparent KD of MS2 coat protein 30 nM or higher? AACAGUACAGGAUAUACAUGAGGAUCACCCAUGUAAAAAUAAAAGGGAAACUCAAAAAGUAGAAGGGUACUGGA [Moding Maslow revisited (73) 13]
t

For this sequence, is measured apparent KD of MS2 coat protein 30 nM or higher? AGUAUGCGAGGAUAUACAUGAGGAUCACCCAUGUGAGAGAUAAGUGUGAGAAAGACAUGUAGAAGGCGCGUACA [JL Lego Mod 28]
t

For this sequence, is measured apparent KD of MS2 coat protein 30 nM or higher? AAAUGACAUGAGGAUCACCCAUGUCAGGAUAUGACUUGAAAAAAAAAAAAAAAACAUGUCAGAAGGGACAUGGG [Design 50: Sub-opt FB]
f

---

Tested on: MS2 coat protein
method: apparent KD of MS2 coat protein; higher = weaker reporter binding
conditionInfo: Eterna round: R107; input ligand: tryptophan 2.4 mM
Please go through the items and note down their apparent KD of MS2 coat protein.
Please state the number and follow it with the unit.

Look over these answered cases.
# constructSequence, studyTarget, outcomeMeasure, reported
measured = [
    ("GCUAGGUCUACGGCCGCCACUAGACGUGGGUAAGACAUGAGGAUCACCCAUGUACUACAGGCGAAUAGGACCGGGUAGACCUAGC [SSTB NP+V+V2 #12 Same Structure]", "MS2 coat protein", "apparent KD of MS2 coat protein", "15.1 nM"),
    ("GCUACAUGAGGAUCACCCAUGUGUACUGAAGGAGCGGCGGAAACGCCAGGUAGGUCGCAGUAUGUGGCUCUGGGCACGAGAUGGC [SSAA NP+V+V2 #1]", "MS2 coat protein", "apparent KD of MS2 coat protein", "33.7 nM"),
    ("UUGUUGUUUGGAAGGAGCGUGUAUGAUUUAGAACAUGAGGAUCACCCAUGUUGGAGGAUAGCACAGGUAGGUCGCCGGGUGGUGG [11.X]", "MS2 coat protein", "apparent KD of MS2 coat protein", "15 nM"),
    ("GCACCAGGUACGGAUACCAGACAUUGCCGUUAGGGUGAACAUGAGGAUCACCCAUGUUUUGUCCCUUGGCAGCCGUACCUGGUGC [ETB NP+V+V2 #7 Same Structure]", "MS2 coat protein", "apparent KD of MS2 coat protein", "9.85 nM"),
    ("CACAUGAGGAUCACCCAUGUCUGAACUGAAGGAGCGCUAAAUAAGGCAGGUAGGUCGCGGAAUCCCGGGUGCAUAUGCACCCGGG [9.aB]", "MS2 coat protein", "apparent KD of MS2 coat protein", "20.9 nM"),
]

Next item in the queue.
Complete the entry with apparent KD of MS2 coat protein for "UGUAUGGACUGAAGGAGCGGAAGAUAGCUUGAGGAUCACCCAAGUAAUAAGGCGAAAGCCUUCCAGGUAGGUCGCAGUCCAUACU"
38.6 nM
